tested on: MDA-MB-468 breast; assay: NCI tumour cell line growth inhibition, 48 h
This section presents compounds with their documented GI50 values.

Below: 4 compounds and their reported GI50.
# smiles.str, GI50
data = [
    ("CCc1cc2ncc(CN3CCN(c4ccc(C(=O)NC)nc4)CC3)cc2[nH]c1=O", "13.3 µM"),
    ("OCCNCCCOc1ccc2ncnc(Nc3ccc(Oc4cccc(C(F)(F)F)c4)c(Cl)c3)c2c1", "0.626 µM"),
    ("COc1cc(-c2n/c(=C\\c3c(O)[nH]c4cc(Cl)ccc34)cc3c2=Nc2ccccc2-3)cc(OC)c1OC", "3.34 µM"),
    ("CN1CCN(c2nc(NCCCNc3ccnc4cc(Cl)ccc34)c3ccccc3n2)CC1", "2.14 µM"),
]

Tell me the measured GI50 of `Cc1cc(N2CCCC2)nc(NCc2cc(Nc3ccnc4cc(Cl)ccc34)ccc2F)n1` , please.
1.14 µM

Item: `CCC(=O)Nc1ccccc1C#C/C=C\C#Cc1ccccc1C(F)(F)F`
1.98 µM

Subsequent entry: `c1cncc(C2Nc3cccc4cccc(c34)N2)c1`
2.93 µM

----------
system: MDA-MB-468 breast; assay: NCI tumour cell line growth inhibition, 48 h
quantity.name: log10 of TGI (log10 of the value in µM)
Annotation: log10 of TGI, µM basis.

# molecule, log10 of TGI
records = [
    ("COc1cc2ncnc(Nc3ccc4c(cnn4Cc4ccccc4)c3)c2cc1OC", -0.23),
    ("Cn1c2ccccc2c2c3[nH][nH]c(=O)c3c3c4ccccc4[nH]c3c21", 0.96),
    ("CCCCc1n(Cc2ccc3ccccc3c2)cc[n+]1Cc1ccc2ccccc2c1", 0.05),
    ("Cc1[nH]c(-c2nc3ccccc3[nH]2)c(C)c1C(=O)NC(C)C1CCCCC1 (stereo unspecified)", 1.45),
    ("COC(=O)/C=C1/SC(N2N=C(c3cccs3)CC2c2ccc(F)cc2)=NC1=O (stereo unspecified)", 0.64),
    ("Cc1cc2nc3cc(C)c(N)cc3[n+](-c3ccccc3)c2cc1N", 0.05),
    ("COc1cc(-c2cc(/C=C/C(=O)c3ccc(Cl)c(Cl)c3)[nH]n2)cc(OC)c1OC", 0.86),
    ("COc1ccc2c(c1)CCCN2S(=O)(=O)c1ccccc1[N+](=O)[O-]", 1.98),
]

Write down the reported log10 of TGI of `COCCN1CCN(Cc2ccc(-c3n[nH]c4c3C(=O)c3c(NC(=O)NN5CCOCC5)cccc3-4)cc2)CC1` , test system: MDA-MB-468 breast.
-1.17

----------
test system: MDA-MB-468 breast; test: NCI tumour cell line growth inhibition, 48 h
quantity.name: TGI (µM)
Report the value in µM with no unit label.

Record excerpt, results attached:
# compound, uom, TGI
measured = [
    ("C[C@]12CC[C@H]3[C@@H](C[C@@H]4SC(Nc5ccccc5)=N[C@@]45CC(O)CC[C@]35C)[C@@H]1CCC2O (some centres undefined)", "µM", 3.38),
    ("Cc1nc(N)sc1-c1csc(Nc2ccc(C(F)(F)F)cc2)n1", "µM", 8.77),
    ("CN1CCN(Cc2ccc(NC(=O)c3cncc(C#Cc4cncc5nccnc45)c3)cc2C(F)(F)F)CC1", "µM", 15.9),
    ("C[n+]1c(-c2ccc(/C=N/NC(=O)c3ccc(C(=O)N/N=C/c4ccc(-c5cn6ccccc6[n+]5C)cc4)cc3)cc2)cn2ccccc21", "µM", 326),
]

Which TGI is reported for this compound? `CCCCC(=O)N/N=C/c1c(O)ccc2ccccc12`
11.7

Would you kindly repeat that for `OCCNCCCOc1ccc2ncnc(Nc3ccc(Oc4cccc(C(F)(F)F)c4)c(Cl)c3)c2c1` ?
2.21

Also check `CCCCNC(=O)c1cc(NCc2cc(O)ccc2O)ccc1O`
33.9

----------
system: MDA-MB-468 breast; experiment: NCI tumour cell line growth inhibition, 48 h
quantity.name: GI50

Completed entries (count: 2):
# smiles.str, reported.value
measured = [
    ("COc1ccc(Cn2cc3c(c2-c2cc(OC)c(OC)c(OC)c2)CCc2c(CN4CCOCC4)noc2-3)cc1", "453 nM"),
    ("C[n+]1c(-c2ccc(/C=N/NC(=O)c3ccc(C(=O)N/N=C/c4ccc(-c5cn6ccccc6[n+]5C)cc4)cc3)cc2)cn2ccccc21", "114000 nM"),
]

For the compound shown here, `COc1ccc(/C=C2\CN(Cc3cn(CCNc4ccnc5cc(Cl)ccc45)nn3)C/C(=C\c3ccc(OC)c(OC)c3)C2=O)cc1OC` , give the reported GI50.
1510 nM

Could you do the same for `CCCNC(=O)c1ccc(Cl)cc1Cl` , please?
> 100000 nM

Origin of the recorded values: PubChem BioAssay (NCI)
